Test system Dipeptidyl Peptidase-IV (DPP-IV) (Homo sapiens), log10 IC50 listed for each of the compounds.
Form field - Quantity: IC50; Unit: nM; Scale: log10

Consider the following illustrative entries.
>>> experimentalresult("CCc1nc2c(c(C(F)(F)F)n1)CCN(C(=O)C[C@H](N)CN1CC(F)(F)CCC1=O)C2")
1.36
>>> experimentalresult("Cc1nc2c(c(C(F)(F)F)n1)CCN(C(=O)C[C@H](N)CN1C[C@H](C)OCC1=O)C2")
1.48
>>> experimentalresult("COCCc1nc2c(c(C(F)(F)F)n1)CCN(C(=O)C[C@H](N)CN1C[C@H](C)CCC1=O)C2")
1.26
>>> experimentalresult("CC1CCN(C[C@@H](N)CC(=O)N2CCn3c(nnc3C(F)(F)F)C2)C1=O (some centres unmarked)")
3.62

Task: Identify the measured log10 IC50 of Cc1nc2c(c(C(F)(F)F)n1)CCN(C(=O)C[C@H](N)CN1C[C@H](C)CCC1=O)C2 for Dipeptidyl Peptidase-IV (DPP-IV) (Homo sapiens).
Output: 1.00

Task: Identify the measured log10 IC50 of N[C@@H](CC(=O)N1CCc2c(nc(C(F)(F)F)nc2C(F)(F)F)C1)CN1CC(C(F)(F)F)CC1=O (some centres unmarked) for Dipeptidyl Peptidase-IV (DPP-IV) (Homo sapiens).
Output: 1.73

Task: Identify the measured log10 IC50 of CC1CC(=O)N(C[C@@H](N)CC(=O)N2CCc3ccccc3C2)C1 (some centres unmarked) for Dipeptidyl Peptidase-IV (DPP-IV) (Homo sapiens).
Output: 2.91

Task: Identify the measured log10 IC50 of C[C@@H]1CCC(=O)N(C[C@@H](N)CC(=O)N2CCc3c(nc(-c4ccco4)nc3C(F)(F)F)C2)C1 for Dipeptidyl Peptidase-IV (DPP-IV) (Homo sapiens).
Output: 0.70

Task: Identify the measured log10 IC50 of C[C@@H]1CCC(=O)N(C[C@@H](N)CC(=O)N2CCc3c(nc(-c4ccc[nH]4)nc3C(F)(F)F)C2)C1 for Dipeptidyl Peptidase-IV (DPP-IV) (Homo sapiens).
Output: 1.86

Task: Identify the measured log10 IC50 of N[C@@H](CC(=O)N1CCn2c(nnc2C(F)(F)F)C1)CN1CC(C(F)(F)F)CC1=O (some centres unmarked) for Dipeptidyl Peptidase-IV (DPP-IV) (Homo sapiens).
Output: 2.58

Task: Identify the measured log10 IC50 of N[C@@H](CC(=O)N1CCc2c(nc(-c3cccnc3)nc2C(F)(F)F)C1)CN1CC(F)(F)CCC1=O for Dipeptidyl Peptidase-IV (DPP-IV) (Homo sapiens).
Output: 0.70
